tested on: TAB113; test: qHTS profiling for inhibitors of Plasmodium falciparum proliferation (AID 504749); also: nearly all actives have a fitted effect of over 60% in size; also: potency is read from the fitted curve at half-maximal effect; conditions: P. falciparum in erythrocytes, SYBR Green DNA, 72 h; series mostly up to 28.7 µM
Records with an inconclusive call do not appear. The source made the active and inactive calls. Calls follow the shape of the dose curve; as a rule, active = well fitted inhibition curve with a large enough effect; inconclusive = small, poorly fitted or top-dose-only effect; inactive = flat fitted curve, though single readings scatter.
Metric name: Potency

Solved cases (5 shown):
INSERT INTO measurements (compound, metric_name, observed) VALUES
  ('Nc1nc2c(c(=O)[nH]1)N(C=O)[C@H](CNc1ccc(C(=O)N[C@@H](CCC(=O)O)C(=O)O)cc1)CN2', 'Potency', 'inactive'),
  ('CCC(C(=O)O)C1CCC(C)C(C(C)C(O)C(C)C(=O)C(CC)C2OC3(C=CC(O)[C@@]4(CC[C@](C)(C5CC[C@@](O)(CC)C(C)O5)O4)O3)C(C)CC2C)O1 (stereo partly specified)', 'Potency', '891 nM (active)'),
  ('OCC(O)C(O)C(O)CO (stereo unspecified)', 'Potency', 'inactive'),
  ('COc1cccc2c1C(=O)c1c(O)c3c(c(O)c1C2=O)C[C@@](O)(C(=O)CO)C[C@@H]3O[C@H]1C[C@H](N)[C@H](OC2CCCCO2)[C@H](C)O1 (stereo partly specified)', 'Potency', '3550 nM (active)'),
  ('CCCCCCCCCCCC(CC1OC(=O)C1CCCCCC)OC(=O)C(CC(C)C)NC=O (stereo unspecified)', 'Potency', '282 nM (active)');

Now look at this one.
The compound COc1ccc2c(c1OC)C(=O)OC2[C@H]1c2c(cc3c(c2OC)OCO3)CCN1C (stereo partly specified) showed Potency equal to inactive

* * *

experiment: qHTS of pediatric cancer cell lines to identify multiple opportunities for drug repurposing: Primary screen for MG 63 (6-TG R) cells (AID 1347105); conditions: MG 63 (6-TG R) viability, CellTiter-Glo, 48 h; series mostly up to 46 µM; also: nearly all actives have a fitted effect of over 50% in size
Results filed as inconclusive are left out. Active and inactive are the calls of the source. Calls follow the shape of the dose curve; as a rule, active = well fitted cell-killing curve with a large enough effect; inconclusive = small, poorly fitted or top-dose-only effect; inactive = no such curve, though single readings can be large or run the other way.
Respond only with the outcome that fits, drawn from Y (active), N (inactive)

Worked set:
INSERT INTO measurements (compound, class_label) VALUES
  ('Nc1nc2c(c(=O)[nH]1)N(C=O)[C@H](CNc1ccc(C(=O)N[C@@H](CCC(=O)O)C(=O)O)cc1)CN2', 'N'),
  ('Cn1cnc(=N)c2[nH]cnc21', 'Y');

Test call for this compound, please: C#C[C@]1(O)CC[C@@H]2[C@@H]3CCc4cc(O)ccc4[C@H]3CC[C@@]21C Y

Write down the call the test reported for this compound. Item: O=C(NCc1ccccc1)[C@H](Cc1ccccc1)NC(=O)[C@@H]1O[C@@H]1C(=O)NCCc1ccc(O)cc1 N

Hi team, can someone confirm the assay call for CC(C(C)N1CC(=O)NC(=O)C1)N1CC(=O)NC(=O)C1 (stereo not given) ? N

* * *

experiment: qHTS of pediatric cancer cell lines to identify multiple opportunities for drug repurposing: Primary screen for NB1643 cells (AID 1347099); conditions: NB1643 neuroblastoma viability, CellTiter-Glo luminescence, 48 h; series mostly up to 46 µM; also: potency is read from the fitted curve at half-maximal effect; nearly all actives have a fitted effect of over 50% in size
Records with an inconclusive call do not appear. Calls of active or inactive are those of the source. The call rests on the fitted dose curve; in most records, active means well fitted cell-killing curve with a large enough effect; inconclusive means small, poorly fitted or top-dose-only effect; inactive means no such curve, though single readings can be large or run the other way.
Metric name: Potency

// known answers, use as guide
INSERT INTO results (compound, metric_name, observed) VALUES
  ('COc1ccc(S(=O)(=O)Nc2cc(-c3c(O)ccc4ccccc34)c(O)c3ccccc23)cc1', 'Potency', '18.7 µM (active)'),
  ('C[C@]12CC[C@@H]3c4ccc(O)cc4CC[C@H]3[C@H]1CC[C@H]2O', 'Potency', '4.18 µM (active)');

get_value(item= COc1ccc([C@@H]2CNC(=O)C2)cc1OC1CCCC1 , readout=Potency) returns 1.32 µM (active)

Noted for C#Cc1cccc(Nc2ncnc3cc(OCCOC)c(OCCO)cc23)c1 : its Potency reads 1.87 µM (active)
